test system: BCL6 (Homo sapiens (Human), UniProt P41182)
measurement protocol: Immunofluorescence high content imaging of BCL6 degradation in T47D cells
Format: cell-based
details: T47D, maximum, class symbols A-C
readout label: Dmax

1) CC(=O)COc1cc2cc(Nc3nc(N4CCC(OCCN5CCN(c6ccc7c(c6)CN(C6CCC(=O)NC6=O)C7=O)CC5)CC4)ncc3Cl)ccc2n(C)c1=O (stereo not drawn) : < 50%
2) CC(=O)COc1cc2cc(Nc3nc(N4CCC(N5CCC(N(C)CCOc6ccc7c(c6)CN(C6CCC(=O)NC6=O)C7=O)C5)CC4)ncc3Cl)ccc2n(C)c1=O (stereo not drawn) : 50 to 70%

Give the reported Dmax for this molecule. CC(=O)COc1cc2cc(Nc3nc(N4CCN(C5CCCN(c6ccc7c(c6)C(=O)N(C6CCC(=O)NC6=O)C7=O)C5)CC4)ncc3Cl)ccc2n(C)c1=O (stereo not drawn)
< 50%
